- TEST SUMMARY: qHTS assay to identify small molecule agonists of H2AX - cell viability counter screen (AID 1224847); further: nearly all actives have a fitted effect of over 30% in size
- MEASUREMENT PARAMETERS: CHO-K1 viability, CellTiter-Glo luminescence, 3 h; series mostly up to 154 µM
Records with an inconclusive call do not appear. Activity calls are given as the source filed them. The call rests on the fitted dose curve.
Output constraint: value belongs to active, inactive

Worked cases, answers included:
| COMPOUND | DISCRETE LABEL |
| --- | --- |
| C=C(C)CCO | inactive |
| CCCCCCCC/C=C\CCCCCCCC(=O)N(CCO)CCO | active |
| CCC1(C)C(=O)N(Cl)C(=O)N1Cl (centres undefined) | inactive |

Please share the test call associated with `O=C1CCC/C=C\CCCCCCCCCC1` .
inactive

Please share the test call associated with `O=S(=O)(c1ccc(OCc2ccccc2)cc1)c1ccccc1O` .
active

----------
- Test system: estrogen-related receptor alpha (ERRalpha) with PGC-1alpha coactivator, human
- TEST SUMMARY: qHTS assay to identify small molecule antagonists of the estrogen related receptor signaling pathway with the pleiotropic PPARgamma coactivator (PGC) (AID 1224821); further: nearly all actives have a fitted effect of over 50% in size
- MEASUREMENT PARAMETERS: ERR/PGC reporter cell line, luciferase, antagonist mode; series mostly up to 46.1 µM
Records with an inconclusive call do not appear. Activity calls are given as the source filed them. Calls come from the whole dose curve.
Output constraint: value belongs to active, inactive

| COMPOUND STRUCTURE STRING | ASSAY SYSTEM | DISCRETE LABEL |
| --- | --- | --- |
| NCCCNCCCCNCCCN | estrogen-related receptor alpha (ERRalpha) with PGC-1alpha coactivator, human | inactive |
| C1CCc2nnnn2CC1 | estrogen-related receptor alpha (ERRalpha) with PGC-1alpha coactivator, human | inactive |
| Cc1nc(N=Nc2ccc(C(=O)O)cc2)c(COP(=O)(O)O)c(C=O)c1O | estrogen-related receptor alpha (ERRalpha) with PGC-1alpha coactivator, human | inactive |

Query compound follows.
Please share the test call associated with `CC[C@@H](C)[C@H]1O[C@]2(CC[C@@H]1C)C[C@@H]1C[C@@H](C/C=C(\C)[C@@H](O[C@H]3C[C@H](OC)[C@@H](O[C@H]4C[C@H](OC)[C@@H](O)[C@H](C)O4)[C@H](C)O3)[C@@H](C)/C=C/C=C3\CO[C@@H]4[C@H](O)C(C)=C[C@@H](C(=O)O1)[C@]34O)O2` .
active

----------
- TEST SUMMARY: qHTS assay to identify small molecule antagonists of the farnesoid-X-receptor (FXR) signaling pathway - cell viability counter screen (AID 743221); further: nearly all actives have a fitted effect of over 50% in size; further: potency means the concentration at half of the fitted maximal effect
- MEASUREMENT PARAMETERS: FXR-bla HEK293T viability, CellTiter-Glo luminescence, 16 h; series mostly up to 62.6 µM
Inconclusive results are not listed. The source made the active and inactive calls. The call rests on the fitted dose curve; in most records, active means well fitted cell-killing curve with a large enough effect in the repeat runs (not every such curve was filed as active); inconclusive means weak or mixed curves, or effect the other way; inactive means no such curve, though single readings can be large or run the other way.
METRIC NAME: Potency

Field: example entries. Status: answers known.
| COMPOUND STRUCTURE STRING | Potency |
| --- | --- |
| CN1CCN(CCCN2c3ccccc3Sc3ccc(C(F)(F)F)cc32)CC1 | 26.6 µM (active) |
| O=C1CCCCCCCCCCCCCC1 | inactive |
| Cc1cc(F)ccc1-c1cc(N2CC[C@@H](O)[C@H]2CO)ncc1N(C)C(=O)C(C)(C)c1cc(C(F)(F)F)cc(C(F)(F)F)c1 | 15.3 µM (active) |
| CC(=O)[C@]1(O)Cc2c(O)c3c(c(O)c2[C@@H](O[C@H]2C[C@H](N)[C@H](O)[C@H](C)O2)C1)C(=O)c1ccccc1C3=O | inactive |

Fill in Potency for record `CN(C[C@@H](CC[N+]12CCC(C3CCCCC3)(CC1)CC2)c1ccc(Cl)c(Cl)c1)C(=O)c1cc(C(F)(F)F)cc(C(F)(F)F)c1`
27.5 µM (active)
